- Test system: BT20
- assay.comment: normalised growth rate inhibition (GR value) relative to DMSO control (GR (1 = untreated growth, 0 = cytostasis, <0 = cytotoxic)); higher = less growth inhibition
- experimental.parameters: 0.04 µM; 72 h
endpoint.name: normalised growth rate inhibition
Give bare numbers.

Examples from the recorded data:
Cc1cc2c(F)c(Oc3ncnn4cc(OC[C@@H](C)O)c(C)c34)ccc2[nH]1; 0.949
O=C1NC(=O)/C(=C/c2ccc3nccc(-c4ccncc4)c3c2)S1; 0.934
Oc1cccc(-c2nc(N3CCOCC3)c3oc4ncccc4c3n2)c1; 0.949
COc1ccc(-c2ccc3c(N4CCOC[C@@H]4C)nc(N4CCOC[C@@H]4C)nc3n2)cc1CO; 0.3

# return normalised growth rate inhibition for each item in the list
1. CNC(=O)c1ccc(Nc2cc(Nc3ccccc3S(=O)(=O)C(C)C)c3cc[nH]c3n2)nc1
2. COCC(=O)NC/C=C/c1ccc2ncnc(Nc3ccc(Oc4ccc(C)nc4)c(C)c3)c2c1
3. COC1=C2C[C@@H](C)C[C@H](OC)[C@H](O)[C@@H](C)/C=C(\C)[C@H](OC(N)=O)[C@@H](OC)/C=C\C=C(/C)C(=O)NC(=CC1=O)C2=O
4. Cn1cnc2c(F)c(Nc3ccc(Br)cc3Cl)c(C(=O)NOCCO)cc21

1. 0.953
2. 0.928
3. 0.262
4. 1.11

# return normalised growth rate inhibition for each item in the list
1. Cc1cc(C(C)Nc2ccccc2)c2nc(N3CCOCC3)cc(=O)n2c1 (configuration not stated)
2. CN(C)C/C=C/C(=O)Nc1cc2c(Nc3ccc(F)c(Cl)c3)ncnc2cc1O[C@H]1CCOC1
3. CC[C@H](CO)Nc1nc(NCc2ccccc2)c2ncn(C(C)C)c2n1

1: 0.914; 2: 0.704; 3: 1.02

# return normalised growth rate inhibition for each item in the list
1. Cn1c(=O)n(-c2ccc(C(C)(C)C#N)cc2)c2c3cc(-c4cnc5ccccc5c4)ccc3ncc21
2. Cc1ccc(F)c(NC(=O)Nc2ccc(-c3cccc4[nH]nc(N)c34)cc2)c1
3. CCOc1cc2ncc(C#N)c(Nc3ccc(OCc4ccccn4)c(Cl)c3)c2cc1NC(=O)/C=C/CN(C)C
4. C#Cc1cccc(Nc2ncnc3cc(OCCOC)c(OCCOC)cc23)c1
5. CNC(=O)c1cc(Oc2ccc(NC(=O)Nc3ccc(Cl)c(C(F)(F)F)c3)cc2)ccn1
6. CC(=O)Nc1nc(C)c(-c2ccc(Cl)c(S(=O)(=O)NCCO)c2)s1

0.254
1.09
0.724
0.861
0.936
1.02

----------
- Tested on: MCF10A
- assay.comment: normalised growth rate inhibition (GR value) relative to DMSO control (GR (1 = untreated growth, 0 = cytostasis, <0 = cytotoxic)); higher = less growth inhibition
- experimental.parameters: 3.33 µM; 72 h
Give normalised growth rate inhibition for every item shown.

Cc1cc2c(F)c(Oc3ncnn4cc(OC[C@@H](C)O)c(C)c34)ccc2[nH]1; 0.74
Cn1cc(C2=C(c3cn(C4CCN(Cc5ccccn5)CC4)c4ccccc34)C(=O)NC2=O)c2ccccc21; 1.01
COCC(=O)NC/C=C/c1ccc2ncnc(Nc3ccc(Oc4ccc(C)nc4)c(C)c3)c2c1; 0.985
Cn1cc(-c2[nH]c3cc(NC(=O)[C@H](N)C4CCCCC4)cc4c3c2C=NNC4=O)cn1; 0.267

# return normalised growth rate inhibition for each item in the list
1. Cc1cnc(-c2cnc(NCCNc3ccc(C#N)cn3)nc2-c2ccc(Cl)cc2Cl)[nH]1
2. CO[C@H]1C[C@@H]2CC[C@@H](C)[C@@](O)(O2)C(=O)C(=O)N2CCCC[C@H]2C(=O)O[C@H]([C@H](C)C[C@@H]2CC[C@@H](O)[C@H](OC)C2)CC(=O)[C@H](C)/C=C(\C)[C@@H](O)[C@@H](OC)C(=O)[C@H](C)C[C@H](C)/C=C/C=C/C=C/1C
3. CS(=O)(=O)CCNCc1ccc(-c2ccc3ncnc(Nc4ccc(OCc5cccc(F)c5)c(Cl)c4)c3c2)o1

1: 0.9; 2: 1; 3: 0.747

# return normalised growth rate inhibition for each item in the list
1. Cn1cnc2c(F)c(Nc3ccc(Br)cc3Cl)c(C(=O)NOCCO)cc21
2. OCCCNc1cc(-c2ccnc(Nc3cccc(Cl)c3)n2)ccn1
3. COc1cc(C(=O)N2CCC(N3CCN(C)CC3)CC2)ccc1Nc1ncc2c(n1)N(C)c1ccccc1C(=O)N2C
4. CCCS(=O)(=O)Nc1ccc(F)c(C(=O)c2c[nH]c3ncc(-c4ccc(Cl)cc4)cc23)c1F

1. 0.25
2. -0.242
3. 0.384
4. 0.798

# return normalised growth rate inhibition for each item in the list
1. NC1(c2ccc(-c3nc4ccn5c(=O)[nH]nc5c4cc3-c3ccccc3)cc2)CCC1
2. CCOc1cc2ncc(C#N)c(Nc3ccc(OCc4ccccn4)c(Cl)c3)c2cc1NC(=O)/C=C/CN(C)C
3. C[C@@H](N)c1ccc(C(=O)Nc2ccnc3[nH]ccc23)cc1
4. Cc1cnc(Nc2ccc(OCCN3CCCC3)cc2)nc1Nc1cccc(S(=O)(=O)NC(C)(C)C)c1
5. Cc1cc(C(=O)NOCCO)c(Nc2ccc(I)cc2F)n(C)c1=O

0.833
0.131
0.805
0.512
0.142
